For each of the compounds below, state its LOLPE damage score (0-5).
- Tested on: LOLPE
- METHOD DESCRIPTION: Post-emergence herbicidal activity, glasshouse pot test
- Assay type: in vivo
- Design: key: 5=total damage to plant; 0=no damage to plant
- SETUP CONDITIONS: comparison of enantiomers, 250 g/Ha

For reference, reported LOLPE damage score (0-5) for COC[C@H]1C(O)N(c2cc(C(C)(C)C)on2)C(=O)N1C (stereo partly drawn) [A4 S-enantiomer, reference compound] stands at 0

For reference, reported LOLPE damage score (0-5) for CCO[C@@H]1C(O)N(c2cc(C(C)(C)F)on2)C(=O)N1C (some centres unmarked) [Example A5] stands at 5

For reference, reported LOLPE damage score (0-5) for CCO[C@@H]1C(O)N(c2cc(C(C)(C)C)on2)C(=O)N1C (single isomer, unassigned) [Example A2] stands at 5

For reference, reported LOLPE damage score (0-5) for CO[C@H]1C(O)N(c2cc(C(C)(C)C)on2)C(=O)N1C (stereo partly drawn) [A1 S-enantiomer, reference compound] stands at 1

For reference, reported LOLPE damage score (0-5) for CCO[C@H]1C(O)N(c2cc(C(C)(C)C)on2)C(=O)N1C (single isomer, unassigned) [A2 S-enantiomer, reference compound] stands at 1

For reference, reported LOLPE damage score (0-5) for CO[C@@H]1C(O)N(c2cc(C(C)(C)C)on2)C(=O)N1C (some centres unmarked) [Example A1] stands at 5

For reference, reported LOLPE damage score (0-5) for COC[C@@H]1C(O)N(c2cc(C(C)(C)C)on2)C(=O)N1C (some centres unmarked) [Example A4] stands at 5

For reference, reported LOLPE damage score (0-5) for CCO[C@H]1C(O)N(c2cc(C(C)(C)F)on2)C(=O)N1C (stereo partly drawn) [A5 S-enantiomer, reference compound] stands at 0
